- ASSAY TARGET: LdTOP1L (large subunit of L. donovani topoisomerase IB) (Leishmania donovani)
- Sequence (A0A3Q8IHS4 1-635): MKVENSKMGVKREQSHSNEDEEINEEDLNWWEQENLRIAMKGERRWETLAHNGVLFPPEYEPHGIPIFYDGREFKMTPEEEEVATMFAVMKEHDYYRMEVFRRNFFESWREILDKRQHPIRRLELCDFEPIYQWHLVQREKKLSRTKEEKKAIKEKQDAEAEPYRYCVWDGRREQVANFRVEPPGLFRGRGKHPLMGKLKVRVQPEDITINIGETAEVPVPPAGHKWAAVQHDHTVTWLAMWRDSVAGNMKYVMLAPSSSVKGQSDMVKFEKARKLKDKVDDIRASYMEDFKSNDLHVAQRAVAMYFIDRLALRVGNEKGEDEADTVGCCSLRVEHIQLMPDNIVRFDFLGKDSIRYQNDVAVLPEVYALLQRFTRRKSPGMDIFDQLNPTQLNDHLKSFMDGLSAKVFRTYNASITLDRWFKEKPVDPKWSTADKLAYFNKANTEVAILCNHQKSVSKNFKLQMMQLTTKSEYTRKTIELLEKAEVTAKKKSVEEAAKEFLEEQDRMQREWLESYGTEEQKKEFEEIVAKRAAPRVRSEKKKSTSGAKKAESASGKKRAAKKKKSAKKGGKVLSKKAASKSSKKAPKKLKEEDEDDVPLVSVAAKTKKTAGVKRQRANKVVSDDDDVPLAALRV
- EXPERIMENTAL DETAILS: intrinsic tryptophan fluorescence quenching
- Format: binding
READOUT LABEL: Kd (nM)
Field: numeric (nM). Do not append units.

Sample COC[C@@H](Cc1ccc(OC)c(OC)c1)[C@@H](COC)Cc1cc(OC)c2c(c1)OCO2 [niranthin] ; Kd observed: 372

---

- ASSAY TARGET: LdTOP1LS (reconstituted heterodimeric topoisomerase IB) (Leishmania donovani, UniProt A0A3Q8IHS4+Q8WQM6)
- Sequence (A0A3Q8IHS4 1-635): as above
- Sequence (Q8WQM6 1-262): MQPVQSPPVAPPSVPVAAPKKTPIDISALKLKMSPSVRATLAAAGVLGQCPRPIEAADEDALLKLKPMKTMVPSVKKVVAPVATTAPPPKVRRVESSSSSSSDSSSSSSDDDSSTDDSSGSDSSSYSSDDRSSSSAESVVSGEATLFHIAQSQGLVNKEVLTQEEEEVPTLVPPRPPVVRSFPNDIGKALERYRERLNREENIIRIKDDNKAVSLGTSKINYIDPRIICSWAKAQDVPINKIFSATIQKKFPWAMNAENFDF
- EXPERIMENTAL DETAILS: tryptophan fluorescence quenching
READOUT LABEL: Kd
# answer = value followed by unit

Lookup result for COC[C@@H](Cc1ccc(OC)c(OC)c1)[C@@H](COC)Cc1cc(OC)c2c(c1)OCO2 [niranthin] ; measured Kd: 299 nM
